# Tested on: MDA-MB-231
# experiment description: NCI tumour cell line growth inhibition, 48 h
Active and inactive are the calls of the source. Rule as the data show it: active = GI50 up to about 1.1 µM and inactive = higher.
observed property: GI50

[
  {
    "compound": "COc1ccc(/C=C/C=C2C(=O)NC(=S)NC2=O)cc1",
    "result": "2.11 µM (inactive)"
  },
  {
    "compound": "Nc1ncn2c(n1)nc1ccccc12",
    "result": "> 100 µM (inactive)"
  },
  {
    "compound": "O=c1[nH]c2cc(F)c(F)cc2nc1Cc1ccccc1",
    "result": "> 100 µM (inactive)"
  },
  {
    "compound": "CCOC(=O)C1CSCCSC1",
    "result": "> 100 µM (inactive)"
  },
  {
    "compound": "CCOC(=O)C1=CC(C)(C(=O)OCC)Nc2c(nc(SC)n(C)c2=O)N1 (configuration not stated)",
    "result": "> 10 µM (inactive)"
  },
  {
    "compound": "CC1(C)OC2C(CO)OC(n3ccc(N)nc3=O)C2O1 (configuration not stated)",
    "result": "> 100 µM (inactive)"
  },
  {
    "compound": "CN(C)CCCN1c2ccccc2Sc2cnccc21",
    "result": "42.1 µM (inactive)"
  },
  {
    "compound": "CN(Cc1ccccc1)/C(=N\\C#N)N(Cc1ccccc1)Cc1ccccc1",
    "result": "20.6 µM (inactive)"
  },
  {
    "compound": "CC1CCN(CC(=O)N2c3ccccc3Sc3cc4ccccc4cc32)CC1",
    "result": "> 100 µM (inactive)"
  },
  {
    "compound": "N[C@@H](Cc1ccccc1)C(=O)N1CCC[C@@H]1P(=O)(Oc1ccccc1)Oc1ccccc1",
    "result": "> 100 µM (inactive)"
  }
]

Each of the following entries comes with a recorded value; kindly state GI50 for each.
1. N=C(N)N/N=C/c1nc2n(c1[N+](=O)[O-])CCS2
2. CCN(C(=O)/C=C/c1ccco1)c1ccccc1
3. NC(Cc1ncccn1)C(=O)O (configuration not stated)

Output:
1. 29 µM (inactive)
2. > 100 µM (inactive)
3. > 100 µM (inactive)

---

# Tested on: HOP-62
# experiment description: NCI tumour cell line growth inhibition, 48 h
The source made the active and inactive calls. Cut-off read from the data, not from the text of the source: active = GI50 up to about 1.1 µM and inactive = higher.
Assign a class; possible classes are True (active), False (inactive)

[
  {
    "compound": "C=C1CC(Cn2cc(C)c(=O)[nH]c2=O)(c2ccc(Cl)cc2)OC1=O (centres undefined)",
    "category": "False"
  },
  {
    "compound": "COc1ccc(/C=C2\\C(=O)N(NC(C)=O)c3ccccc32)cc1",
    "category": "False"
  },
  {
    "compound": "COc1cc(O)c2c(=O)c3cccc(C)c3[nH]c2c1",
    "category": "False"
  },
  {
    "compound": "C=CCCC(CCC=C)(C(=O)O)C(=O)O",
    "category": "False"
  }
]

Input: Which outcome was entered for the compound Cc1ccc(S(=O)(=O)OC2CC(C(C)(C)C)CCC2c2ccccc2)cc1 (centres undefined) in this test?
Output: False

Input: Outcome? COc1ccc(OC)c2c1ccc1c(C)c3ccccc3c(C)c12
Output: False

Input: Record request — test call for COc1ccc(/C(C)=N/NC(=S)N(C)C)c(O)c1
Output: False

Input: Outcome? CC(C)=NN/C=N\C(C#N)=C(/N)C#N
Output: False

Input: Please state the recorded outcome for this compound: Cc1ccsc1/C=N/Nc1cc(C)c2ccccc2n1
Output: False

Input: What is the recorded call for this compound in the test? O=C(O)c1ccc2nc(-c3ccccn3)c(-c3ccccn3)nc2c1
Output: False

Input: Short answer needed: outcome of this test for CNCCN[C@@H]1c2cc3c(cc2[C@@H](c2cc(OC)c(O)c(OC)c2)[C@H]2C(=O)OC[C@@H]21)OCO3 ?
Output: True

Input: Outcome logged for C=C1[C@H](OCC(C)C)[C@@H](OC(=O)C(C)CC)[C@@H](O)C(C)(C)/C=C/[C@H](C)C(=O)[C@@]2(O)C[C@H](C)[C@H](O)[C@@H]2[C@H]1OC(=O)C(C)CC (some centres undefined) in this assay:
Output: False

Input: Tell me the recorded outcome of this test for C[C@@H]1[C@H](O)CC2=C(CC[C@@H](O)C2(C)C)[C@@]1(CO)CCc1ccoc1 .
Output: False

Input: Which result was noted for this compound in the test: NNC(=O)c1ccc(-n2nnc(C(=O)NN)c2C(=O)NN)cc1
Output: False

Input: Hello, I am checking results. What call was entered for O=C1c2ccccc2C(=O)c2c(NC(=O)C(Cl)CCl)cccc21 (centres undefined) ?
Output: False

Input: Please share the test call associated with Cc1nc(N)sc1C(=O)/C=C\c1ccc2c(c1)OCO2 .
Output: False

Input: Check the results log: what was the call for COc1ccc([C@@H]2C[C@@H]3C(=O)OC(=O)[C@@H]3c3c2c2ccccc2n3C)cc1 ?
Output: False

Input: Could you check what this test reported for c1ccc(/N=C2\c3ccsc3/C(=N/c3ccccc3)c3ccsc32)cc1 ?
Output: False

Input: For COC(=O)[C@H](Cc1c[nH]c2ccccc12)NC(=O)c1ccc(CNC(=O)/C(C)=C/c2ccccc2)cc1 , which call appears in the assay record?
Output: False
